Test system: MS2 coat protein
Measurement description: apparent KD of MS2 coat protein; designed switch direction (-1 OFF switch, 1 ON switch): -1; higher = weaker reporter binding
Condition label: Eterna round: R95; input ligand: none
Test readout: apparent KD of MS2 coat protein (nM)
Give a bare numeral; the unit nM is implied.

input: Form entry - test system: MS2 coat protein; read-out: apparent KD of MS2 coat protein; sequence: AGGUAACAUGAGGAUCACCCAUGUCAGGAUAUCAGGAAGAUUAGAAUAGAGUAGAGGAUGAGAAGGGACUAUAU [Excluse me! 18- Jieux - Exclusion 1] (puzzle: Exclusion 1)
output: 43.1

input: Try this sequence too: UGUACUAACACGAUAGUGUUAGUACUAUAAGCUUGUGUUACAUGAGGAUCACCCAUGUCCUCAUAAGCUCGUCUUGA [Mat - Sensor v3 - Turn-off var 2 - D93] (puzzle: Sensor v3, turn-off variant 2)
output: 31.2

input: Try this sequence too: UGUUGUUGAUAGGAUAUACUUGUAGGAGUAGGAGUAGAAGGAUCUACAUGAGGAUCACCCAUGUAGGAGUGAGA [JR_E6_Sub003] (puzzle: Exclusion 6)
output: 15.7

input: Try this sequence too: UUUUAGAGAGGAUAUAUAUUGUGAAACAUGAGGAUCACCCAUGUAAUAAUAUGGAUGAAAAUAGAAGGCUCAUUUA [Mat - Exclusion 5 - JL mod - D7] (puzzle: Exclusion 5)
output: 73.6

input: Try this sequence too: AAGAAACAUGAGGAUCACCCAUGUGAGGAUAUGAUGAAGAAAAGAAAAGAAAGAAGAGUCAGAAGGCACAAAGG [salish99-ex1_r3_064] (puzzle: Exclusion 1)
output: 69.2

input: Try this sequence too: GAUUAUGCGAGCUUUAGGGACAUGAGGAUCACCCAUGUUCGUCUUAUUGGUCUGGAUACACUGACAUACCUAAAUCU [JMF 60] (puzzle: Sensor v3, turn-off variant 1)
output: 18.4

input: Try this sequence too: CCCUCAGUCUAGGAUAUAACAAUCAGAUAUCAGUUAGAAGGAGACACAUGAGGAUCACCCAUGUGGGUCAAUAA [Bearener] (puzzle: Exclusion 6)
output: 21.3

input: Try this sequence too: GAUAAGGUAGGAUAUACGAAUAAAAAGGGUAGAAGAAGAACACAUGAGGAUCACCCAUGUAGAAGGACCAAUAG [Mat - Exclusion 2 - Mod of my Tesla design - D24] (puzzle: Exclusion 2)
output: 16.5

input: Try this sequence too: GCAGGCGUCUAGGCUCGUCUUAUUUUGAGAGGAUUGAUAACAUGAGGAUCACCCAUGUUUGUGGGAGAGUUGCAGUG [JR_SV3TOV2_Sub015] (puzzle: Sensor v3, turn-off variant 2)
output: 143

input: Try this sequence too: AAGAAACAUGAGGAUCACCCAUGUGAGGAUAUGAGGAAGAAAAGAAAAGAAAGAAGAAUCAGAAGGCACAAAGG [salish99-ex1_r3_049] (puzzle: Exclusion 1)
output: 43.6

input: Try this sequence too: AGUACUAACACGAUAGUGUUAGUACAAUAAGCUUGUGUUACAUGAGGAUCACCCAUGUCCUCAUAAGCUCGUCUUAA [Mat - Sensor v3 - Turn-off var 2 - D59] (puzzle: Sensor v3, turn-off variant 2)
output: 35.3

input: Try this sequence too: AGUACUAACACGAAUGUGUUAGUACAAUAAGCUUGUGAAACAUGAGGAUCACCCAUGUCCUCAUAAGCUCGUCUUAU [salish99_TOv2_r3_032] (puzzle: Sensor v3, turn-off variant 2)
output: 15.5

input: Try this sequence too: GCCAGAGCAGGAUAUUCAAUAUGUCACAUGAGGAUCACCCAUGUCCAGCGAAAGCUGGAGGGAGAAGGGCUCUGGC [Fiskers Ex 5 - 18] (puzzle: Exclusion 5)
output: 119

input: Try this sequence too: CGUGACUCAGGAUAUGUAUAAUAUCACAUGAGGAUCACCCAUGUCCAGCGAAAGCUGGAGGCAGAAGGGAGUCACG [Fiskers Ex 5 - 38] (puzzle: Exclusion 5)
output: 31.9

input: Try this sequence too: GGUGCGUAUGUGAGGAUAUGCUGGUCCUUGGCUCGGCAGAAGGCACAUGAGGAUCACCCAUGUGGUGUCGUACG [salish99_Bmod_ex4_063] (puzzle: Brourd's mod of Exclusion 4)
output: 54.4

input: Try this sequence too: AAGAAACAUGAGGAUCACCCAUGUGAGGAUAUGACAAAGAAAAGAAAAGAAAGAAGAUUCAGAAGGCACAAAGG [salish99-ex1_r3_036] (puzzle: Exclusion 1)
output: 70.4

input: Try this sequence too: ACGUGAUAUCUGUCGGUGGACAUGAGGAUCACCCAUGUAAGCUUUUUGCUCAUCUUAUAACCCGGUGACAGACCUUC [Zaisbela] (puzzle: Sensor v3, turn-off variant 1)
output: 29.5

input: Try this sequence too: CUGAGGUAGCGGUCCUAUGACAUGAGGAUCACCCAUGUACCUUGCUACGAGCUUUUUGCUCGUCUUAUGAUUCUCGG [JL Atriat mod 4] (puzzle: Sensor v3, turn-off variant 1)
output: 250

input: Try this sequence too: CAGAAACAUGAGGAUCACCCAUGUGAGGAUAUGAAAAAGAAAAGAAAAGAAAGAAGAAUCAGAAGGCACAAAGU [salish99-ex1_r3_086] (puzzle: Exclusion 1)
output: 35.7

input: Try this sequence too: ACAAGCUUUUUGCUCGGGUACAUGAGGAUCACCCAUGUUGUGUUUUAUUGUUUUUGAUUGUUCGUGCGCUGCAGGUU [JR_SV3TOV1_Sub074] (puzzle: Sensor v3, turn-off variant 1)
output: 58.3

---

Test system: MS2 coat protein
Measurement description: apparent KD of MS2 coat protein; designed switch direction (-1 OFF switch, 1 ON switch): 1; higher = weaker reporter binding
Condition label: input ligand: microRNA oligo, concentration not stated
Quick rule for you: apparent KD of MS2 coat protein at 0.2 µM or higher means Satisfied, lower means Not satisfied.

input: hey, is apparent KD of MS2 coat protein for this one >= 0.2 µM? GGUCCAUCAUGAGGAUAUGGCACCUUAUUGGUGCCAGAAGGCAUGUCUAUAGACAUGAGGAUCACCCAUGUUAUAAAUUGGACC [Eli NG1ss - 92] (Eterna round: R96, puzzle: Same State NG 1)
output: Not satisfied

input: Try this sequence too: GCUACCAUUGAAGCCAACAUGAGGAUCACCCAUGUAUGUUGGCAGGAUAUCGAUUGCUUUGCGAUCGAGAAGGGCUAAGGUAGC [JL SSNG3 1.29] (Eterna round: R96, puzzle: Same State NG 3)
output: Not satisfied

input: Try this sequence too: UGUUGUAUUACAGGAUAUCUGUUAUUUUUAUUUAGAGAAGGGUAUUCACAUGAGGAUCACCCAUGUAUAUACGAGGAAGUUGUG [JMF's solution 7] (Eterna round: R96, puzzle: Same State NG 1)
output: Not satisfied

input: Try this sequence too: GCGAGCGUACUUGCUACAUGAGGAUCACCCAUGUUCGUUGGACAGGAUAUGGUACCGUUUCGGUACCAGAAGGGUUCACAUGUA [JL SSNG3 3.77] (Eterna round: R96, puzzle: Same State NG 3)
output: Satisfied

input: Try this sequence too: UUGUUUCGUCAUUAACAUGAGGAUCACCCAUGUCUUGGCCCAGAGGAUAUGCAUGUUUGAUUGUAGCAGAAGGCUGAUUGUUGU [JR_SSNG3_Sub031] (Eterna round: R96, puzzle: Same State NG 3)
output: Not satisfied

---

Test system: MS2 coat protein
Measurement description: apparent KD of MS2 coat protein; designed switch direction (-1 OFF switch, 1 ON switch): -1; higher = weaker reporter binding
Condition label: input ligand: FMN 200 uM
Test readout: apparent KD of MS2 coat protein (nM)
Give a bare numeral; the unit nM is implied.

input: Would you kindly share the measured apparent KD of MS2 coat protein for GAGCUGUGAGGAUAUACAUGAGGAUCACCCAUGUUAAGGAAGUGGUGUAUAUUGUAGUGUAGAAGGCACUUGUG [JR_Ex3_Sub025] (Eterna round: R97, puzzle: Exclusion 3) ?
output: 600

input: Try this sequence too: GGUAUACAUGAGGAUCACCCAUGUCAGGAUAUGGCGGCGUCGGCGAAAGCGGAGGCGGCCAGAAGGGACGAUAG [AK-MS2ROC-r4-exclusion1-6.1] (Eterna round: R97, puzzle: Exclusion 1)
output: 70.7

input: Try this sequence too: UAAGAGUAUGUUAGGAUAUGCUGGUCCUUGGAUCAGCAGAAGGAACAUGAGGAUCACCCAUGUAGAAUCUUUUA [Mod of JL 17 - Jieux - Brourd's mod of Exclusion 4] (Eterna round: R97, puzzle: Brourd's mod of Exclusion 4)
output: 74.8

input: Try this sequence too: AAUAACAGAGGAUAUACUAUUUUAUGUGUUUGUUAUUUUGAACAUGAGGAUCACCCAUGUAGAAGGCUGAUUAA [JMF 49] (Eterna round: R96, puzzle: Exclusion 2)
output: 45.6

input: Try this sequence too: GUCUUACAUGAGGAUCACCCAUGUGAGGAUAUGAGUGGUGCUGCUAGGUAGUAUAGACUCAGAAGGCGCAUGAU [Malcxlusion 3 - Jieux - Exclusion 1] (Eterna round: R97, puzzle: Exclusion 1)
output: 37.7

input: Try this sequence too: GUCAGGAAUGUAGGAUAUCUGCACGUUUAGUGCAGAGAAGGACAUGAGGAUCACCCAUGUAUAGUAGCUUCGGCUACACCUGAC [ENG1-A2] (Eterna round: R96, puzzle: Exclusion NG 1)
output: 19.3

input: Try this sequence too: ACUCAACAGUAGGAUAUCAUCAAACUAUUGUGAUGAGAAGGACUGACAUGAGGAUCACCCAUGUUAACGUGAUG [Mod of Brourd 2 - Jieux - Exclusion 6] (Eterna round: R97, puzzle: Exclusion 6)
output: 32.1

input: Try this sequence too: CUAAAUCAUGUAGGAUAUGCAUAGCAAAGCUAUGCAGAAGGACAUGAGGAUCACCCAUGUCAUUCCGUCUGGAGACAGACGGGA [Mat - Exclusion NG 1 - Mod of JL - D56] (Eterna round: R96, puzzle: Exclusion NG 1)
output: 142

input: Try this sequence too: UAUGAGUCAGGAUAUUAGUAGUGUGUGGAUACAUAUAUUGCUGAGAAGGGACAUGAGGAUCACCCAUGUAUAAG [JR_Ex4_Sub056] (Eterna round: R97, puzzle: Exclusion 4)
output: 65.3

input: Try this sequence too: AGCGAGGCAGGAUAUACAUGAGGAUCACCCAUGUGCUUGUAUGGCGUGGAACAUCGUAGUAGAAGGGCCGCGCC [EX3 #77] (Eterna round: R97, puzzle: Exclusion 3)
output: 28.4
